- study_system: Tyrosine-protein kinase ABL1 (Homo sapiens)
- settings: Compound concentration 20.0 uM, Protein concentration 2.0 uM, Result type QC Liability
- Description: Thermal Shift Assay. Domain: start/stop: S229-K512
reported_endpoint: ΔTm (°C)
Answer in °C, number only, no unit symbol.

See these solved cases before continuing.
>  <molecule>
CN(C)c1ncc2cc(-c3ccc(-c4ncccc4F)cc3Cl)c(=O)n(C[C@H]3OC[C@H](N)CO3)c2n1

>  <quantity_unit>
°C

>  <ΔTm>
-0.17

$$$$
>  <molecule>
O=C(Nc1cccc(Nc2nccc(Nc3cccc(C(F)(F)F)c3)n2)c1)C1CC1

>  <quantity_unit>
°C

>  <ΔTm>
1.63

$$$$
>  <molecule>
NC(=O)c1sc2nc(N3CCC(NC[C@H](O)c4ccccn4)CC3)cc(C(F)(F)F)c2c1N

>  <quantity_unit>
°C

>  <ΔTm>
1.22

$$$$
>  <molecule>
CC(=O)Nc1nc(C)c(S(=O)(=O)Nc2ccc(C(O)(C(F)(F)F)C(F)(F)F)cc2)s1

>  <quantity_unit>
°C

>  <ΔTm>
0.65

$$$$
>  <molecule>
O=C1Nc2ccc(C(=O)c3ccco3)cc2C1=Cc1cc(Cl)c(O)c(Cl)c1

>  <quantity_unit>
°C

>  <ΔTm>
4.46

$$$$

Returns the measured ΔTm for the input molecule. Input: `CC(C)(C[C@H]1CN(S(=O)(=O)c2cccc(C(F)(F)F)c2)c2cc(-c3cc(F)cc(OC(F)F)c3)ccc2O1)C(=O)O`
-1.5

Now the same for `Cc1cc2c(-c3ccco3)cnc(N[C@@H]3CCN(C)C[C@H]3C(=O)NC3CCCCC3)c2[nH]c1=O`
0.07

Similarly, `O=C(Nc1ccc(-n2nc(-c3cccnc3)cc2C(F)(F)F)cn1)c1ccc(-c2ccccc2)c(F)c1` ?
-0.47

What about CC1CNCCc2c1nc1ccnn1c2N1CC(C(=O)N2CCC(C)(C)C2)C1 (centres undefined) ?
0.04
